Entries and their log10 IC50 values follow.
test system: murine splenocytes; assay: ConA mitogen-stimulated proliferation of murine splenocytes ([3H]-thymidine incorporation); format: cell-based, mouse (BALB/c); conditions: ConA 1 μg/ml, 100,000 spleen cells, Experiment I; read-out: IC50 in inhibition of ConA induced murine splenocyte proliferation
Note the log scale: values are log10 of IC50 expressed in µM.

- COMPOUND: "CCC=CCCCCCCCC(=O)CC(=O)N[C@H]1CCOC1=O [Example 17]"
  log10 IC50: 1.08
- COMPOUND: "C=CCCCCCCCCCC(=O)CC(=O)N[C@H]1CCOC1=O [Example 18]"
  log10 IC50: 1.00
- COMPOUND: "CCCCCCC=CCCCC(=O)CC(=O)N[C@H]1CCOC1=O [Example 14]"
  log10 IC50: 1.23
- COMPOUND: "COC(=O)CCCCCCCCCCC(=O)CC(=O)N[C@H]1CCOC1=O [Example 13]"
  log10 IC50: 0.78
- COMPOUND: "CCCCCCCCCCCC(=O)CC(=O)N[C@H]1CCOC1=O [Example 11]"
  log10 IC50: 0.78
- COMPOUND: "CCCCCCCCCCCC(O)CC(=O)N[C@H]1CCOC1=O (stereo partly shown) [Example 22]"
  log10 IC50: 0.85
- COMPOUND: "CCCCCC(C)CCC(=O)CC(=O)N[C@H]1CCOC1=O (stereo partly shown) [Example 5]"
  log10 IC50: 0.70
- COMPOUND: "COC(=O)CCCCCCC(=O)CC(=O)N[C@H]1CCOC1=O [Example 4]"
  log10 IC50: 1.86

Query: Name the reported log10 IC50 value associated with the compound O=C(CCCCCCCCCO)CC(=O)N[C@H]1CCOC1=O [Example 19]
Result: 0.95

Query: Queued: C=CCCCCCCCCCC(O)CC(=O)N[C@H]1CCOC1=O (stereo partly shown) [Example 27]
Result: 1.26

These entries and their values trace back to patent US7371779B2.
